# target system: recombinant guanylate cyclase reporter cell line (Rattus norvegicus, UniProt P19686+P20595)
# Construct: expressed in transfected cells
# Sequence (P20595 whole entry): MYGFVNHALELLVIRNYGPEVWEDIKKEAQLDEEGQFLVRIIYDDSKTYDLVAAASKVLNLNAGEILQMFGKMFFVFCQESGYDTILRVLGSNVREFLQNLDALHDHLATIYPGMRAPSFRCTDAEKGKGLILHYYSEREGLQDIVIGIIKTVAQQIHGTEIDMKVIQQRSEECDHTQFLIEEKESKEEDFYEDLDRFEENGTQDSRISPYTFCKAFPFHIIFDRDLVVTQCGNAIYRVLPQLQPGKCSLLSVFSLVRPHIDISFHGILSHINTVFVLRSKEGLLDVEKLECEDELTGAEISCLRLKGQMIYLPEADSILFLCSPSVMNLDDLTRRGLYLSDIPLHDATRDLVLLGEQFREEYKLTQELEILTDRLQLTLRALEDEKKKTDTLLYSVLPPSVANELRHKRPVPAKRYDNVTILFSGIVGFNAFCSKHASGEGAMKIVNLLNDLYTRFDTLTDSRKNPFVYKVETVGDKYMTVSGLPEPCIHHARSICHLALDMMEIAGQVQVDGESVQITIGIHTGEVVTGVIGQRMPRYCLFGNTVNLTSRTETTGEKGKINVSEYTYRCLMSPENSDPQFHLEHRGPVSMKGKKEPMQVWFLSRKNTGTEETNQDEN
# Sequence (P19686 whole entry): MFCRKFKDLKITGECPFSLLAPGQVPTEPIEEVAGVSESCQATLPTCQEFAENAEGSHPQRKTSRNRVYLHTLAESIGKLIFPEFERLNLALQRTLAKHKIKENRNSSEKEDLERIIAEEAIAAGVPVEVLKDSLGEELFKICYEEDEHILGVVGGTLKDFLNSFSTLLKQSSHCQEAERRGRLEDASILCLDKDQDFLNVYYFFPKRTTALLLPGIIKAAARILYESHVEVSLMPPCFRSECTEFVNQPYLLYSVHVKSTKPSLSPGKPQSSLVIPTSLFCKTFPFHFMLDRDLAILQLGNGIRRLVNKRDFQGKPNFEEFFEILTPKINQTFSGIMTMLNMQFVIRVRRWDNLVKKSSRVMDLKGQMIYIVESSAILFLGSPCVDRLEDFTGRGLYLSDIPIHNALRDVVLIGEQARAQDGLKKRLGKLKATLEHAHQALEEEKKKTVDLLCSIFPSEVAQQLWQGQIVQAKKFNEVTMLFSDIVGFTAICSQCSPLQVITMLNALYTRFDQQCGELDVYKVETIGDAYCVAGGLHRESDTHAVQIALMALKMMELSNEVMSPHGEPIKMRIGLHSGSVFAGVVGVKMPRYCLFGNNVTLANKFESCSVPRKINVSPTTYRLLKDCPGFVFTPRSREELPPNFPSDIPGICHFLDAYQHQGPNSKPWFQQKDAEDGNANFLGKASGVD
# measurement protocol: Action on recombinant guanylate cyclase reporter cell line
# Assay type: cell-based
# assay setup: representative MEC values
metric: MEC (minimal effective concentration) (µM)

Recorded MEC (minimal effective concentration), per entry:
molecule | unit of measure | measured
COC(=O)CCNC(=O)c1c(C)nc2c(OCc3c(F)cccc3F)cccn12 [Example 7] | µM | 1.0
COC(=O)C(C)(C)NC(=O)c1c(C)nc2c(OCc3c(F)cccc3F)cccn12 [Example 5] | µM | 0.3
COC(=O)C(NC(=O)c1c(C)nc2c(OCc3c(F)cccc3F)cccn12)c1ccc(Cl)cc1 (racemic) [Example 2] | µM | 0.3

A. COC(=O)CCCCCCCNC(=O)c1c(C)nc2c(OCC3CCCCC3)cccn12 [Example 16]
B. COC(=O)C(CCC(F)(F)F)NC(=O)c1c(C)nc2c(OCc3c(F)cccc3F)cccn12 (racemic) [Example 10]
### Prompt Compare MEC (minimal effective concentration): is it lower for A or for B ? Write down the label attached to your selection.
### Response A

* * *

# target system: recombinant guanylate cyclase reporter cell line (Rattus norvegicus, UniProt P19686+P20595)
# Construct: expressed in transfected cells
# measurement protocol: Action on recombinant guanylate cyclase reporter cell line
# Assay type: cell-based
# assay setup: representative MEC values
Counter-ions that a name gives are not always drawn.
metric: MEC (minimal effective concentration) (µM)

Recorded MEC (minimal effective concentration), per entry:
compound | metric | unit of measure | measured
CCCCC(NC(=O)c1c(C)nc2c(OCc3c(F)cccc3F)cccn12)C(=O)OC (single isomer, unassigned; enantiomer b) [Example 19] | MEC (minimal effective concentration) | µM | 1.0
COC(=O)CC(NC(=O)c1c(C)nc2c(OCc3c(F)cccc3F)cccn12)C(F)(F)F (racemic) | MEC (minimal effective concentration) | µM | 1.0
COC(=O)CC(C)NC(=O)c1c(C)nc2c(OCc3c(F)cccc3F)cccn12 (racemic) | MEC (minimal effective concentration) | µM | 1.0
CCCCC(NC(=O)c1c(C)nc2c(OCc3c(F)cccc3F)cccn12)C(=O)OC (racemic) [Example 8] | MEC (minimal effective concentration) | µM | 1.0
COC(=O)[C@@H](C)NC(=O)c1c(C)nc2c(OCc3c(F)cccc3F)cccn12 | MEC (minimal effective concentration) | µM | 3.0

I. Cc1cc(OCc2c(F)cccc2F)c2nc(C)c(C(=O)NC[C@H]3CC[C@H](C(=O)O)CC3)n2c1
II. Cc1nc2c(OCC3CCCCC3)cccn2c1C(=O)NCCCCCC(=O)O
### Prompt Endpoint returns whichever of I and II has the numerically higher MEC (minimal effective concentration). Write down the label attached to your selection.
### Response I
(I: 1.0 µM, II: 0.3 µM)

A. COC(=O)CCCCCCCNC(=O)c1c(C)nc2c(OCc3c(F)cccc3F)cccn12
B. Cc1nc2c(OCC3CCCCC3)cccn2c1C(=O)NCCCCCCCC(=O)O
### Prompt Endpoint returns whichever of A and B has the numerically higher MEC (minimal effective concentration). Write down the label attached to your selection.
### Response A
(A: 1.0 µM, B: 0.065 µM)

a. CCCC[C@H](NC(=O)c1c(C)nc2c(OCc3c(F)cccc3F)cccn12)C(=O)O [Example 23, hydrochloride]
b. Cc1nc2c(OCc3c(F)cccc3F)cccn2c1C(=O)NCCCCCCCC(=O)O
### Prompt Endpoint returns whichever of a and b has the numerically higher MEC (minimal effective concentration). Write down the label attached to your selection.
### Response a
